Sourced from patent US20240376068A1

# IC50 listing for each entry below
- System Name: α1d (h) (Homo sapiens (Human))
- Sequence (P25100 whole entry): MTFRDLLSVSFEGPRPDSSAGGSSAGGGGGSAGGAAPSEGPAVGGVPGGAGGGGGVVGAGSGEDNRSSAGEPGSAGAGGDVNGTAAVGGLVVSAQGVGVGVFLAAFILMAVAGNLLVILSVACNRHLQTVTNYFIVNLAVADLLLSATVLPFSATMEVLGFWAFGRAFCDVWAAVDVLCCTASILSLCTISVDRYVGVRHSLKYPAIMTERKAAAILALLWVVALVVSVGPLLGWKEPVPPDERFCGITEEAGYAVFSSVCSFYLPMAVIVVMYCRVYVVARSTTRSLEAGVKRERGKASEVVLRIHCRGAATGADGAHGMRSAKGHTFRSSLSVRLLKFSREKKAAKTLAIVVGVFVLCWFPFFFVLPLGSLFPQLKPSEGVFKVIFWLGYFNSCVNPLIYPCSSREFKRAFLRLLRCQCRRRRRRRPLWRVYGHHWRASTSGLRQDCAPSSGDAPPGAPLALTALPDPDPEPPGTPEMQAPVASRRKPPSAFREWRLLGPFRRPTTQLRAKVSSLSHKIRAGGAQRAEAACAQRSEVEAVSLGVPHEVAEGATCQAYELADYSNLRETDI
- Experiment Notes: α1D adrenergic agonist effect assay
- Format: cell-based
- Reported Conditions: CHO cells

Chemical String	IC50
CCCN1CCN(c2ccc3c(c2)CN(C(=O)OCc2ccccc2)CC3(C)C)CC1	> 1000 nM
CC1(C)CCN(C2CCCC2)Cc2cc(-c3ccc(C(F)(F)F)cc3)ccc21	> 1000 nM

###

# pKi listing for each entry below
- System Name: Sigma 2 (h) (Homo sapiens (Human), UniProt Q5BJF2)
- Sequence (Q5BJF2 whole entry): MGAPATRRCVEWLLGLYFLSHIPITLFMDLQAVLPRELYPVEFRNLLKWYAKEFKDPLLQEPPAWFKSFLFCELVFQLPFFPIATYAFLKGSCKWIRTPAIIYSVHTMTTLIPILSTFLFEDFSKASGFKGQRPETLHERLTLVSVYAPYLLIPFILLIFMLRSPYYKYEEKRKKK
- Experiment Notes: Sigma-2 binding assay
- Reported Conditions: [3H]DTG (+1 μM (+)pentazocine), Jurkat cells; read-out: Sigma-2 Ki
pKi: −log10 of the molar value.
Measure: pKi

Compound	Test Result
CCCN1Cc2cc(-c3ccc(C(F)(F)F)cc3)ccc2C(C)(C)C1 [Compound 6]	< 6.30
CC1(C)CN(C2CCCC2)Cc2cc(-c3ccc(C(F)(F)F)cc3)ccc21 [Compound 4]	6.30 to 7.00
CC1(C)CN(S(=O)(=O)c2cccc(Cl)c2)Cc2cc(N3CCN(C4CCCC4)CC3)ccc21 [Compound 33]	8.30 to 10.00
CCCN1CCN(c2ccc3c(c2)CN(C(=O)OCc2ccccc2)CC3(C)C)CC1 [Compound 2]	7.30 to 8.30
CC(C)OC(=O)N1Cc2cc(N3CCN(C4CCCC4)CC3)ccc2C(C)(C)C1 [Compound 45]	7.30 to 8.30
CC1(C)CCN(S(=O)(=O)c2cccc(Cl)c2)Cc2cc(N3CCC(N4CCOCC4)CC3)ccc21 [Compound 80]	7.00 to 7.30
CN1CCN(c2ccc3c(c2)CN(C(=O)OCc2ccccc2)CCC3(C)C)CC1 [Compound 7]	6.30 to 7.00
CCCN1CCN(c2ccc3c(c2)CN(C(=O)OCc2ccccc2)CCC3(C)C)CC1 [Compound 8]	7.30 to 8.30

###

# pIC50 listing for each entry below
- System Name: α1b (h) (Homo sapiens (Human), UniProt P35368)
- Sequence (P35368 whole entry): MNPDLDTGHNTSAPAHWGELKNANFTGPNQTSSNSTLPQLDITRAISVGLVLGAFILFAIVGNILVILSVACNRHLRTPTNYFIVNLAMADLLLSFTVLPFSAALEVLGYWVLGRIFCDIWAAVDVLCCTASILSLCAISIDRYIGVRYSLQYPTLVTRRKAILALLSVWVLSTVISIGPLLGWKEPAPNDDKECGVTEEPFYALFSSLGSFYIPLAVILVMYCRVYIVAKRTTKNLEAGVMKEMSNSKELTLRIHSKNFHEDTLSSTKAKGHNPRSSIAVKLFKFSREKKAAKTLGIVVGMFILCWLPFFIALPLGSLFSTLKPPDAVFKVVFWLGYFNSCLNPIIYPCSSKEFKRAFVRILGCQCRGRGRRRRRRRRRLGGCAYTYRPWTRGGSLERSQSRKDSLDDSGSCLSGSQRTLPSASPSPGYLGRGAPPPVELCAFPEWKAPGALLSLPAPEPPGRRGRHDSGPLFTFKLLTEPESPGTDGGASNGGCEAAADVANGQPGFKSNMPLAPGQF
- Experiment Notes: α1B adrenergic agonist effect assay
- Format: cell-based
- Reported Conditions: CHO cells
pIC50: −log10 of the molar value.

Chemical String	pIC50
CCCN1CCN(c2ccc3c(c2)CN(C(=O)OCc2ccccc2)CC3(C)C)CC1	< 6.00
CC1(C)CCN(C2CCCC2)Cc2cc(-c3ccc(C(F)(F)F)cc3)ccc21	< 6.00

###

- System Name: α1a (h) (Homo sapiens (Human))
- Experiment Notes: α1A adrenergic agonist effect assay
- Assay type: cell-based
- Reported Conditions: α1A(h) agonist effect, 1 μM; read-out: % stimulation relative to control (1 μM)
- Method: Assays for determining the agonist effect on α1A (h) were performed according to the procedure described in Example 21, and the results are represented in Table D below.
# activation at 1 µM listing for each entry below

Molecule	activation at 1 µM [%]
CC1(C)CCN(C2CCCCC2)Cc2cc(-c3ccc(C(F)(F)F)cc3)ccc21 [Compound 32]	0
CC1(C)CN(S(=O)(=O)c2cccc(Cl)c2)Cc2cc(N3CCN(C4CCCC4)CC3)ccc21 [Compound 33]	-1
CC1(C)CCN(C(=O)c2cccc3c2OCO3)Cc2cc(N3CCC(N4CCOCC4)CC3)ccc21 [Compound 84]	0
CC1(C)CCN(C(=O)C2CCCCC2)Cc2cc(N3CCC(N4CCOCC4)CC3)ccc21 [Compound 86]	0
CC1(C)CN(C(=O)c2cc(F)cc(Cl)c2)Cc2cc(N3CCN(C4CCCC4)CC3)ccc21 [Compound 38]	0
CC1(C)CCN(S(=O)(=O)c2cccc(Cl)c2)Cc2cc(N3CCC(N4CCOCC4)CC3)ccc21 [Compound 80]	0
Cc1cc(-c2ccc3c(c2)CN(CCC(=O)N2CCC(C)CC2)CCC3(C)C)cc(C)n1 [Compound 131]	-1
CC(C)OC(=O)N1CCC(C)(C)c2ccc(N3CCN(C4CCCC4)CC3)cc2C1 [Compound 79]	0
CC1(C)CCN(C(=O)C2CCCC2)Cc2cc(N3CCC(N4CCOCC4)CC3)ccc21 [Compound 85]	1
Cc1cc(-c2ccc3c(c2)CN(CCC(=O)N2CCc4ccccc4C2)CCC3(C)C)cc(C)n1 [Compound 111]	0
CC1(C)CN(C(=O)OC2CCCCC2)Cc2cc(N3CCN(C4CCCC4)CC3)ccc21 [Compound 43]	0
CC(C)OC(=O)N1Cc2cc(N3CCN(C4CCCC4)CC3)ccc2C(C)(C)C1 [Compound 45]	0
CC1(C)CCN(C(=O)C2CCCC2)Cc2cc(N3CCN(C4CCCC4)CC3)ccc21 [Compound 73]	0

###

- System Name: dopamine D2S receptor (Homo sapiens (Human), UniProt P14416)
- Sequence (P14416 other isoform, or with tags, fused parts or gaps): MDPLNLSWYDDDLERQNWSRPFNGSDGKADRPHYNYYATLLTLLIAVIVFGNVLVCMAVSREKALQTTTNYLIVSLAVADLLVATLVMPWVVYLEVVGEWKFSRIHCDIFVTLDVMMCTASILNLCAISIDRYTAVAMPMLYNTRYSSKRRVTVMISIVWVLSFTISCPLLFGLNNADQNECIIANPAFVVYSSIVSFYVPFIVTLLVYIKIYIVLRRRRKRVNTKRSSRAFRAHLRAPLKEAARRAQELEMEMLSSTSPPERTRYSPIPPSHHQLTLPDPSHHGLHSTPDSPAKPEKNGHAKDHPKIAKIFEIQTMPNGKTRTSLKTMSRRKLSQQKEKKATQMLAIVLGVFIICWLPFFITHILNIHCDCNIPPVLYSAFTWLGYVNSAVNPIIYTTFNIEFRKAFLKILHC
- Experiment Notes: Dopamine D2S receptor binding assay (Eurofins Cerep item 1322)
- Reported Conditions: [3H]7-OH-DPAT, read-out: % inhibition of control specific binding (1 μM)
# inhibition at 1 µM listing for each entry below
Measure: inhibition at 1 µM (%)

Chemical String	System Name	Measure	Test Result
CC1(C)CCN(C(=O)C2CCCC2)Cc2cc(N3CCC(N4CCOCC4)CC3)ccc21	dopamine D2S receptor (Homo sapiens (Human), UniProt P14416)	inhibition at 1 µM	-3
CC1(C)CCN(C2CCCCC2)Cc2cc(-c3ccc(C(F)(F)F)cc3)ccc21	dopamine D2S receptor (Homo sapiens (Human), UniProt P14416)	inhibition at 1 µM	8
CC1(C)CCN(C(=O)C2CCCC2)Cc2cc(N3CCN(C4CCCC4)CC3)ccc21	dopamine D2S receptor (Homo sapiens (Human), UniProt P14416)	inhibition at 1 µM	6
CC(C)OC(=O)N1CCC(C)(C)c2ccc(N3CCN(C4CCCC4)CC3)cc2C1	dopamine D2S receptor (Homo sapiens (Human), UniProt P14416)	inhibition at 1 µM	19
Cc1cc(-c2ccc3c(c2)CN(CCC(=O)N2CCc4ccccc4C2)CCC3(C)C)cc(C)n1	dopamine D2S receptor (Homo sapiens (Human), UniProt P14416)	inhibition at 1 µM	37
CC1(C)CN(C(=O)OC2CCCCC2)Cc2cc(N3CCN(C4CCCC4)CC3)ccc21	dopamine D2S receptor (Homo sapiens (Human), UniProt P14416)	inhibition at 1 µM	11
CC1(C)CCN(C(=O)c2cccc3c2OCO3)Cc2cc(N3CCC(N4CCOCC4)CC3)ccc21	dopamine D2S receptor (Homo sapiens (Human), UniProt P14416)	inhibition at 1 µM	-1
Cc1cc(-c2ccc3c(c2)CN(CCC(=O)N2CCC(C)CC2)CCC3(C)C)cc(C)n1	dopamine D2S receptor (Homo sapiens (Human), UniProt P14416)	inhibition at 1 µM	21
CC(C)OC(=O)N1Cc2cc(N3CCN(C4CCCC4)CC3)ccc2C(C)(C)C1	dopamine D2S receptor (Homo sapiens (Human), UniProt P14416)	inhibition at 1 µM	-5
CC1(C)CN(C(=O)c2cc(F)cc(Cl)c2)Cc2cc(N3CCN(C4CCCC4)CC3)ccc21	dopamine D2S receptor (Homo sapiens (Human), UniProt P14416)	inhibition at 1 µM	1
CC1(C)CCN(C(=O)C2CCCCC2)Cc2cc(N3CCC(N4CCOCC4)CC3)ccc21	dopamine D2S receptor (Homo sapiens (Human), UniProt P14416)	inhibition at 1 µM	2
CC1(C)CN(S(=O)(=O)c2cccc(Cl)c2)Cc2cc(N3CCN(C4CCCC4)CC3)ccc21	dopamine D2S receptor (Homo sapiens (Human), UniProt P14416)	inhibition at 1 µM	13
CC1(C)CCN(S(=O)(=O)c2cccc(Cl)c2)Cc2cc(N3CCC(N4CCOCC4)CC3)ccc21	dopamine D2S receptor (Homo sapiens (Human), UniProt P14416)	inhibition at 1 µM	4

###

- System Name: 5HT2A (Homo sapiens (Human))
- Experiment Notes: 5HT2A agonist effect assay
- Format: cell-based
- Reported Conditions: 100 nM, read-out: % stimulation relative to control (100 nM)
# activation at 0.1 µM listing for each entry below

Chemical String	System Name	Result Units	activation at 0.1 µM
Cc1cc(-c2ccc3c(c2)CN(CCC(=O)N2CCC(C)CC2)CCC3(C)C)cc(C)n1	5HT2A (Homo sapiens (Human))	%	1
CC1(C)CCN(C(=O)C2CCCCC2)Cc2cc(N3CCC(N4CCOCC4)CC3)ccc21	5HT2A (Homo sapiens (Human))	%	2
CC1(C)CCN(S(=O)(=O)c2cccc(Cl)c2)Cc2cc(N3CCC(N4CCOCC4)CC3)ccc21	5HT2A (Homo sapiens (Human))	%	0
CC(C)OC(=O)N1Cc2cc(N3CCN(C4CCCC4)CC3)ccc2C(C)(C)C1	5HT2A (Homo sapiens (Human))	%	-4
CC1(C)CCN(C(=O)C2CCCC2)Cc2cc(N3CCC(N4CCOCC4)CC3)ccc21	5HT2A (Homo sapiens (Human))	%	-2

###

# pIC50 listing for each entry below
- System Name: α1a (h) (Homo sapiens (Human), UniProt P35348)
- Sequence (P35348 whole entry): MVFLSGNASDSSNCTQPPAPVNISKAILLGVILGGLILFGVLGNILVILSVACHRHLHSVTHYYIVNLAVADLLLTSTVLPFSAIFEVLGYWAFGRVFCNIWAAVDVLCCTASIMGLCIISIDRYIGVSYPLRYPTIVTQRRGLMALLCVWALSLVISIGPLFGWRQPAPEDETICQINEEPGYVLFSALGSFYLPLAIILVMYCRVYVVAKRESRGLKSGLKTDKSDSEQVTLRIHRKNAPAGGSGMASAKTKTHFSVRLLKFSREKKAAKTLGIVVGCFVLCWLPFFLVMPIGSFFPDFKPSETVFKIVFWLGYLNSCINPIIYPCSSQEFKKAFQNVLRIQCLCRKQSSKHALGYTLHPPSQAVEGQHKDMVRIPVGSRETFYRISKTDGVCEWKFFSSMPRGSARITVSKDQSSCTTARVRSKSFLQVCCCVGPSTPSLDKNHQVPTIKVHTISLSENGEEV
- Experiment Notes: α1A adrenergic antagonist effect assay
- Assay type: cell-based
- Reported Conditions: antagonist effect, CHO cells
pIC50: −log10 of the molar value.

Chemical String	pIC50
CC1(C)CCN(C2CCCC2)Cc2cc(-c3ccc(C(F)(F)F)cc3)ccc21	< 6.00
CCCN1CCN(c2ccc3c(c2)CN(C(=O)OCc2ccccc2)CC3(C)C)CC1	< 6.00
